Reference for the values: PubChem BioAssay (NCI)

- Tested on: SK-OV-3 ovarian
- METHOD: NCI-60 one-dose screen, 48 h (100 = growth as untreated, 0 = no growth, -100 = all killed)
- ASSAY SETUP: 10 µM unless noted
- Procedure: Growth inhibition of the SK-OV-3 human tumor cell line is measured as a screen for anti-cancer activity. Cells are grown in 96 well plates and exposed to the test compound for 48 hours. Compounds are tested at a single concentration, which is 10^-5 M for most compounds. The reported endpoint is percent growth (GI% or GIPRCNT), where numbers from 0 - 100% represent growth inhibition, and numbers from -100% - 0 represent cell death. For example, a value of 40 represents 60% growth inhibition. […]
Compounds without any hit were thinned out: in the full panel of roughly 83,000, 20% have a hit.
Listing of recorded growth by entry.

{"MOLECULE": "CC(O)Cn1cnc2c1c(=O)n(C)c(=O)n2C (stereo unspecified)", "growth, %": 103}
{"MOLECULE": "CCCCCCCCCCCCCCCCOc1ccc(C)cc1", "growth, %": 108}
{"MOLECULE": "N#C/C(=C/c1c(O)ccc2ccccc12)C(N)=O", "growth, %": 92.6}
{"MOLECULE": "Cc1ccc(S(=O)(=O)NCN2C(=O)c3ccccc3C2=O)cc1", "growth, %": 98.4}
{"MOLECULE": "N#CCCOc1ccccc1", "growth, %": 97}
{"MOLECULE": "Oc1ccccc1C=NCC1CCC(CN=Cc2ccccc2O)CC1 (stereo unspecified)", "growth, %": 95}
{"MOLECULE": "COc1ccc(S(=O)(=O)N2CCOCC2)cc1NC(=O)c1[nH]c(C)c2c1CCCCC2=O", "growth, %": 103}
{"MOLECULE": "N=C1N=C(N)CS1", "growth, %": 109}
{"MOLECULE": "CCC(=O)C(CC)c1cccc(OC)c1 (stereo unspecified)", "growth, %": 121}
{"MOLECULE": "O=C(O)CSCc1nc2ccccc2[nH]1", "growth, %": 113}
{"MOLECULE": "CC(=O)NC(Cc1ccccc1)C(=O)Oc1ccc2ccccc2c1 (stereo unspecified)", "growth, %": 91.5}
{"MOLECULE": "CC(/C=N/N1C(=O)c2ccccc2C1=O)c1ccccc1 (stereo unspecified)", "growth, %": 108}
{"MOLECULE": "CCOC(=O)c1sc(N)nc1-c1ccccc1", "growth, %": 93.7}
{"MOLECULE": "Clc1nc(Oc2ccccc2)nc(-c2cn(-c3ccccc3)c3ccccc23)n1", "growth, %": 103}
{"MOLECULE": "O=C(Nc1ccc(Cl)cc1)c1cc2ccccc2cc1O", "growth, %": 18.9}
{"MOLECULE": "O=C1c2ccccc2C(=O)N1/N=C/c1ccc2c(c1)OCO2", "growth, %": 97.5}
{"MOLECULE": "COc1ccc2ccccc2c1/C=N/N1CCCCC1", "growth, %": 111}
{"MOLECULE": "N#C/C(=C1C=C/C(=N/O)C(Br)=C/1)c1ccccc1", "growth, %": 29.1}
{"MOLECULE": "S=C1SCN(Cc2ccccc2)CN1Cc1ccccc1", "growth, %": 103}
{"MOLECULE": "Cc1ccc(-c2noc(CC(=O)c3ccc([N+](=O)[O-])cc3)n2)cc1", "growth, %": 97.6}
{"MOLECULE": "NCCSC(C[N+](=O)[O-])c1ccccc1Cl (stereo unspecified)", "growth, %": 112}
{"MOLECULE": "O=C(Nc1cccc(Cl)c1)c1cc2ccccc2cc1O", "growth, %": -11.7}
{"MOLECULE": "C1CCCCNCCC1", "growth, %": 117}
{"MOLECULE": "NC(=S)NS(=O)(=O)c1ccc(N)cc1", "growth, %": 108}
{"MOLECULE": "O=C(CCc1ccc(O)cc1)N/N=C/c1cc(Br)ccc1O", "growth, %": 61.2}
{"MOLECULE": "OCc1ccccn1", "growth, %": 117}
{"MOLECULE": "O=C1CCN(Cc2ccccc2)C(=S)N1", "growth, %": 101}
{"MOLECULE": "COc1cc(C(=O)N/N=C/c2ccc(N(C)C)cc2)cc(OC)c1OC", "growth, %": 10.9}
{"MOLECULE": "CC1=C(/C=C/C(C)=C/C=C/C(C)=C/C=N/NC(=S)NC(=S)N/N=C/C=C(C)/C=C/C=C(C)/C=C/C2=C(C)CCCC2(C)C)C(C)(C)CCC1", "growth, %": 57.5}
{"MOLECULE": "CC(C)Cc1ccc(C(C)C(=O)NCc2ccc(Cn3c(=O)sn(CCCI)c3=O)cc2)cc1 (stereo unspecified)", "growth, %": 70.9}
{"MOLECULE": "Cc1c(Cl)cccc1NCN1C(=O)c2ccccc2C1=O", "growth, %": 106}
{"MOLECULE": "Cc1cccc(/C=C\\C(=O)c2ccccc2)c1", "growth, %": 101}
{"MOLECULE": "COc1ccc(NC(=S)Nc2ccccn2)cc1", "growth, %": 98}
{"MOLECULE": "CN(C)CCC(=O)c1ccc(Cl)cc1", "growth, %": 108}
{"MOLECULE": "O=C(Cc1cccc2ccccc12)N/N=C/c1ccc2c(c1)CCC2", "growth, %": 83.2}
{"MOLECULE": "O=[N+]([O-])c1ccc(-n2[nH]nnc2=S)cc1", "growth, %": 103}

---

- Tested on: HCC-2998 colon
- METHOD: NCI-60 one-dose screen, 48 h (100 = growth as untreated, 0 = no growth, -100 = all killed)
- ASSAY SETUP: 10 µM
- Method: Growth inhibition of the HCC-2998 human tumor cell line is measured as a screen for anti-cancer activity. Cells are grown in 96 well plates and exposed to the test compound for 48 hours. Compounds are tested at a single concentration, which is 10^-5 M for most compounds. The reported endpoint is percent growth (GI% or GIPRCNT), where numbers from 0 - 100% represent growth inhibition, and numbers from -100% - 0 represent cell death. For example, a value of 40 represents 60% growth inhibition. […]
This is part of a sample that, as a whole, favours compounds with a hit. Of some 83,000 tested, about 20% had one in any assay.

{"MOLECULE": "CCCCCCCCCCCCCCCc1ccc(Cl)c(O)c1Cl (tested in a mixture with another compound)", "growth / %": 116}
{"MOLECULE": "CCc1ccccc1-n1c(N)c(C#N)c(-c2ccc(OC)c(OC)c2)c(C#N)c1=O", "growth / %": 122}
{"MOLECULE": "CNC(=O)c1cc(Oc2ccc(CC(=O)Nc3cc(C(C)(C)C)nn3C)cc2)ccn1", "growth / %": 75.3}
{"MOLECULE": "CC#C[C@]1(O)CC[C@H]2[C@@H]3CCC4=CC(=O)CCC4=C3[C@@H](c3ccc4c(c3)OCO4)C[C@@]21C", "growth / %": 94.4}
{"MOLECULE": "O=C(O)c1sccc1O", "growth / %": 109}

---

- Tested on: NCI-H460 lung
- METHOD: NCI-60 one-dose screen, 48 h (100 = growth as untreated, 0 = no growth, -100 = all killed)
- ASSAY SETUP: 10 µM unless noted
This is part of a sample that, as a whole, favours compounds with a hit. Of some 83,000 tested, about 20% had one in any assay.

{"COMPOUND": "Oc1ccccc1C=NCC1CCC(CN=Cc2ccccc2O)CC1 (stereo not drawn)", "SUBJECT OF TEST": "NCI-H460 lung", "UNIT DESCRIPTOR": "%", "growth": 41.7}
{"COMPOUND": "Nc1ccc2ccc(N)cc2c1", "SUBJECT OF TEST": "NCI-H460 lung", "UNIT DESCRIPTOR": "%", "growth": 91.7}
{"COMPOUND": "CN(Cc1ccccc1)Cc1ccccc1", "SUBJECT OF TEST": "NCI-H460 lung", "UNIT DESCRIPTOR": "%", "growth": 110}
{"COMPOUND": "N#C/C(=C/c1c(O)ccc2ccccc12)C(N)=O", "SUBJECT OF TEST": "NCI-H460 lung", "UNIT DESCRIPTOR": "%", "growth": 103}
{"COMPOUND": "CC12CCC(CC1)C(C)(C)O2", "SUBJECT OF TEST": "NCI-H460 lung", "UNIT DESCRIPTOR": "%", "growth": 118}
{"COMPOUND": "O=[N+]([O-])c1ccc2nc3c4ccccc4c4ccccc4c3nc2c1", "SUBJECT OF TEST": "NCI-H460 lung", "UNIT DESCRIPTOR": "%", "growth": 68.4}
{"COMPOUND": "Nc1n[nH]c(=S)n1-c1ccc(Cl)cc1", "SUBJECT OF TEST": "NCI-H460 lung", "UNIT DESCRIPTOR": "%", "growth": 99.6}
{"COMPOUND": "O=C1c2ccccc2C(=O)N1/N=C/c1ccc2c(c1)OCO2", "SUBJECT OF TEST": "NCI-H460 lung", "UNIT DESCRIPTOR": "%", "growth": 112}
{"COMPOUND": "Cc1ccc(-c2noc(CC(=O)c3ccc([N+](=O)[O-])cc3)n2)cc1", "SUBJECT OF TEST": "NCI-H460 lung", "UNIT DESCRIPTOR": "%", "growth": 103}
{"COMPOUND": "Cc1ccc(-c2noc(C)n2)cc1", "SUBJECT OF TEST": "NCI-H460 lung", "UNIT DESCRIPTOR": "%", "growth": 106}
{"COMPOUND": "CC(/C=N/N1C(=O)c2ccccc2C1=O)c1ccccc1 (stereo not drawn)", "SUBJECT OF TEST": "NCI-H460 lung", "UNIT DESCRIPTOR": "%", "growth": 108}
{"COMPOUND": "c1ccc(N(c2ccccc2)c2ccccc2)cc1", "SUBJECT OF TEST": "NCI-H460 lung", "UNIT DESCRIPTOR": "%", "growth": 111}
{"COMPOUND": "CC(O)Cn1cnc2c1c(=O)n(C)c(=O)n2C (stereo not drawn)", "SUBJECT OF TEST": "NCI-H460 lung", "UNIT DESCRIPTOR": "%", "growth": 118}
{"COMPOUND": "Cc1ccc2nc3c(nc2c1)-c1cccc2cccc-3c12", "SUBJECT OF TEST": "NCI-H460 lung", "UNIT DESCRIPTOR": "%", "growth": 72.4}
{"COMPOUND": "O=C(Cc1cccc2ccccc12)N/N=C/c1ccc2c(c1)CCC2", "SUBJECT OF TEST": "NCI-H460 lung", "UNIT DESCRIPTOR": "%", "growth": 81.5}
{"COMPOUND": "OCc1ccccn1", "SUBJECT OF TEST": "NCI-H460 lung", "UNIT DESCRIPTOR": "%", "growth": 105}
{"COMPOUND": "CCN(CC)C(=O)c1cccnc1", "SUBJECT OF TEST": "NCI-H460 lung", "UNIT DESCRIPTOR": "%", "growth": 111}
{"COMPOUND": "CC1=NN(c2ccccc2)C(=O)C1C(=O)c1ccccc1 (stereo not drawn)", "SUBJECT OF TEST": "NCI-H460 lung", "UNIT DESCRIPTOR": "%", "growth": 108}
{"COMPOUND": "Nc1ccc2[nH]c(-c3ccccc3)cc(=O)c2c1", "SUBJECT OF TEST": "NCI-H460 lung", "UNIT DESCRIPTOR": "%", "growth": 97.4}
{"COMPOUND": "CNC(=O)c1cccnc1", "SUBJECT OF TEST": "NCI-H460 lung", "UNIT DESCRIPTOR": "%", "growth": 109}
{"COMPOUND": "N#C/C(=C1C=C/C(=N/O)C(Br)=C/1)c1ccccc1", "SUBJECT OF TEST": "NCI-H460 lung", "UNIT DESCRIPTOR": "%", "growth": 8.25}
{"COMPOUND": "Fc1ccccc1Nc1n[nH]c(=S)s1", "SUBJECT OF TEST": "NCI-H460 lung", "UNIT DESCRIPTOR": "%", "growth": 109}
{"COMPOUND": "N#CCCOc1ccccc1", "SUBJECT OF TEST": "NCI-H460 lung", "UNIT DESCRIPTOR": "%", "growth": 105}
{"COMPOUND": "CCC(=O)C(CC)c1cccc(OC)c1 (stereo not drawn)", "SUBJECT OF TEST": "NCI-H460 lung", "UNIT DESCRIPTOR": "%", "growth": 107}
{"COMPOUND": "O=C=NC(c1ccccc1)(c1ccccc1)c1ccccc1", "SUBJECT OF TEST": "NCI-H460 lung", "UNIT DESCRIPTOR": "%", "growth": 111}
{"COMPOUND": "C1CCCCNCCC1", "SUBJECT OF TEST": "NCI-H460 lung", "UNIT DESCRIPTOR": "%", "growth": 118}
{"COMPOUND": "O=C(O)c1cc(C(=O)O)cc([N+](=O)[O-])c1", "SUBJECT OF TEST": "NCI-H460 lung", "UNIT DESCRIPTOR": "%", "growth": 110}
{"COMPOUND": "CC1(c2ccc3ccccc3c2)CCC(=O)O1 (stereo not drawn)", "SUBJECT OF TEST": "NCI-H460 lung", "UNIT DESCRIPTOR": "%", "growth": 112}
